biological target: human ether-à-go-go-related gene (hERG) potassium channel (human); assay: primary screen, population patch clamp on CHO cells stably expressing hERG; higher = less effect of the substance;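 note: peak tail current of the secondary pulse compared with the same well before compound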
Sequence (Q12809 whole entry, looked up): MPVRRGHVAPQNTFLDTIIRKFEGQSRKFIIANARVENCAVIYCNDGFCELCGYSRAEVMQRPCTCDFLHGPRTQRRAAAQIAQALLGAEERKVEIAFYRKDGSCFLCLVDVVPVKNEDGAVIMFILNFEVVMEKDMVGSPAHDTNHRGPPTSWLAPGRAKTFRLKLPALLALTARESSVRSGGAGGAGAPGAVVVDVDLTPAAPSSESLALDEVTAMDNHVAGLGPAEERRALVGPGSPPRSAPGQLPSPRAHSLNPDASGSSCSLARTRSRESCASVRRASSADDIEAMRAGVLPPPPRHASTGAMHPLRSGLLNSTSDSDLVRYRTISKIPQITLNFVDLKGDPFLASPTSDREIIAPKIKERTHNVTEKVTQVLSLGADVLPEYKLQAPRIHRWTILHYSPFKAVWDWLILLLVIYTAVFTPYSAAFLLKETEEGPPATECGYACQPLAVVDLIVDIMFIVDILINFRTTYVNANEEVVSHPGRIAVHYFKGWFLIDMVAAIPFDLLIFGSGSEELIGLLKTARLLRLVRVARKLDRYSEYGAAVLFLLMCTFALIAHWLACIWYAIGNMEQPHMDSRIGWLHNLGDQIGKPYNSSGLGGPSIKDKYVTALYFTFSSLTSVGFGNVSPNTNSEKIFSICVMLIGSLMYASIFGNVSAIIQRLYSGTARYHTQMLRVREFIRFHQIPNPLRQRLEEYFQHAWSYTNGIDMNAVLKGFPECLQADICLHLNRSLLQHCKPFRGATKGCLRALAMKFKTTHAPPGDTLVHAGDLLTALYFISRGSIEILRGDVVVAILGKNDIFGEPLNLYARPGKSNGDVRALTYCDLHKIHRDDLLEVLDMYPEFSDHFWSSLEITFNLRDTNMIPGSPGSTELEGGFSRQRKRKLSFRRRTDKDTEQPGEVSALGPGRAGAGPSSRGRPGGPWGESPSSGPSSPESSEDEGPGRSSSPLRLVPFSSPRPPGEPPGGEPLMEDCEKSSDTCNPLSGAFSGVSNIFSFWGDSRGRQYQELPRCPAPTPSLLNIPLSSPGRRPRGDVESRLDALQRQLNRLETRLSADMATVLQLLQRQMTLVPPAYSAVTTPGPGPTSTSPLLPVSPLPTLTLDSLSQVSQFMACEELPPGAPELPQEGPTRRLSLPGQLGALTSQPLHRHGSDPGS
Screen size: about 310,000 compounds; about 14,000 (4.5%) showed an effect of 50% or more. The effect is printed as a negative number. What follows is part of a selection rich in strong results, with near analogues and random picks from the rest.
REPORTED_METRIC: hERG current change (%, negative = inhibition) at 10uM (%)
Answer with a number only, understood to be in %.

Known hERG current change (%, negative = inhibition) at 10uM results, listed for orientation:
INSERT INTO assay_data (structure_notation, tested_target, recorded_number) VALUES
  ('C/C(=N\NC(=O)CNC(=O)c1ccc2c(c1)OCCO2)c1ccco1', 'human ether-à-go-go-related gene (hERG) potassium channel (human)', 10.7),
  ('O=C(NC1CCN(c2ncccn2)CC1)c1ccccc1F', 'human ether-à-go-go-related gene (hERG) potassium channel (human)', 18.6),
  ('Cc1ccc(/C=N/c2sc3c(c2C(N)=O)CCCC3)o1', 'human ether-à-go-go-related gene (hERG) potassium channel (human)', 23.3);

Then there is this compound:
Look up hERG current change (%, negative = inhibition) at 10uM for this compound: COc1ccc(S(=O)(=O)N2CCN(Cc3ccc4c(c3)OCO4)CC2)cc1F -30.5

Cited source: paper PMC4336329
